- TEST_DESCRIPTION: Biodistribution of SLS MDI formulation: drug concentrations in lung and blood (Table 5)
- Assay type: in vivo, male Sprague-Dawley rats
- EXPERIMENTAL_CONDITIONS: rat, blood, inhaled or intranasal; rats; SLS MDI 10 mg/mL drug, 0.3% SLS in HFA134a; 6.0 hr (n = 2); read-out: Concentrations of Drug, Blood
READOUT_KIND: concentration at 6 h (ng/mL)

> print(dat)
                            molecule.smiles          readout.kind  reported.result
1  C[C@H](C#Cc1ccc(Oc2ccc(F)cc2)o1)N(O)C(N)=O  concentration at 6 h              280

* * *

- TEST_DESCRIPTION: Biodistribution of SLS MDI formulation: drug concentrations in lung and blood (Table 5)
- Type: in vivo, male Sprague-Dawley rats
- EXPERIMENTAL_CONDITIONS: rat, blood, inhaled or intranasal; rats; SLS MDI 10 mg/mL drug, 0.3% SLS in HFA134a; 2.0 hr (n = 6); read-out: Concentrations of Drug, Blood
READOUT_KIND: concentration at 2 h (ng/mL)

> print(dat)
                            molecule.smiles  reported.result
1  C[C@H](C#Cc1ccc(Oc2ccc(F)cc2)o1)N(O)C(N)=O              150

* * *

- TEST_DESCRIPTION: Biodistribution of SLS MDI formulation: drug concentrations in lung and blood (Table 5)
- Assay type: in vivo, male Sprague-Dawley rats
- EXPERIMENTAL_CONDITIONS: rat, blood, inhaled or intranasal; rats; SLS MDI 10 mg/mL drug, 0.3% SLS in HFA134a; 0.083 hr (n = 12)
READOUT_KIND: concentration at 0.083 h (ng/mL)

> print(dat)
                            molecule.smiles              readout.kind  reported.result
1  C[C@H](C#Cc1ccc(Oc2ccc(F)cc2)o1)N(O)C(N)=O  concentration at 0.083 h              110

* * *

- TEST_DESCRIPTION: Biodistribution of SLS MDI formulation: drug concentrations in lung and blood (Table 5)
- Format: in vivo, male Sprague-Dawley rats
- EXPERIMENTAL_CONDITIONS: rat, lung, inhaled or intranasal; rats; SLS MDI 10 mg/mL drug, 0.3% SLS in HFA134a; 4.0 hr; read-out: Concentrations of Drug, Lung
READOUT_KIND: concentration at 4 h (ng/g)

> print(dat)
                            molecule.smiles  reported.result
1  C[C@H](C#Cc1ccc(Oc2ccc(F)cc2)o1)N(O)C(N)=O             8540

* * *

- TEST_DESCRIPTION: Biodistribution of SLS MDI formulation: drug concentrations in lung and blood (Table 5)
- Assay type: in vivo, male Sprague-Dawley rats
- EXPERIMENTAL_CONDITIONS: rat, blood, inhaled or intranasal; rats; SLS MDI 10 mg/mL drug, 0.3% SLS in HFA134a; 0.5 hr (n = 9); read-out: Concentrations of Drug, Blood
- Procedure: A SLS (sodium lauryl sulfate) MDI formulation was tested in the following biodistribution study. One group of 13 male Sprague-Dawley rats, weighing 400 to 500 grams was used. This group of animals was dosed with a sodium lauryl sulfate-based R(+)-N-[3-[5-(4-fluorophenoxy)-2-furanyl]-1-methyl-2-propynyl]-N-hydroxyurea MDI formulation. Blood samples were collected at 0.083, 0.25, 0.5, 1, 2, 4 and 6 hours after dosing. […]
READOUT_KIND: concentration at 0.5 h (ng/mL)

> print(dat)
                            molecule.smiles            readout.kind  reported.result
1  C[C@H](C#Cc1ccc(Oc2ccc(F)cc2)o1)N(O)C(N)=O  concentration at 0.5 h              180

* * *

- TEST_DESCRIPTION: Biodistribution of SLS MDI formulation: drug concentrations in lung and blood (Table 5)
- Format: in vivo, male Sprague-Dawley rats
- EXPERIMENTAL_CONDITIONS: rat, lung, inhaled or intranasal; rats; SLS MDI 10 mg/mL drug, 0.3% SLS in HFA134a; 0.25 hr; read-out: Concentrations of Drug, Lung
READOUT_KIND: concentration at 0.25 h (ng/g)

> print(dat)
                            molecule.smiles  units.label  reported.result
1  C[C@H](C#Cc1ccc(Oc2ccc(F)cc2)o1)N(O)C(N)=O         ng/g            14500

* * *

- TEST_DESCRIPTION: Biodistribution of SLS MDI formulation: drug concentrations in lung and blood (Table 5)
- Format: in vivo, male Sprague-Dawley rats
- EXPERIMENTAL_CONDITIONS: rat, blood, inhaled or intranasal; rats; SLS MDI 10 mg/mL drug, 0.3% SLS in HFA134a; 0.25 hr (n = 12); read-out: Concentrations of Drug, Blood
READOUT_KIND: concentration at 0.25 h (ng/mL)

> print(dat)
                            molecule.smiles             readout.kind  reported.result
1  C[C@H](C#Cc1ccc(Oc2ccc(F)cc2)o1)N(O)C(N)=O  concentration at 0.25 h              140

* * *

- TEST_DESCRIPTION: Biodistribution of SLS MDI formulation: drug concentrations in lung and blood (Table 5)
- Type: in vivo, male Sprague-Dawley rats
- EXPERIMENTAL_CONDITIONS: rat, blood, inhaled or intranasal; rats; SLS MDI 10 mg/mL drug, 0.3% SLS in HFA134a; 1.0 hr (n = 8); read-out: Concentrations of Drug, Blood
READOUT_KIND: concentration at 1 h (ng/mL)

> print(dat)
                            molecule.smiles  units.label  reported.result
1  C[C@H](C#Cc1ccc(Oc2ccc(F)cc2)o1)N(O)C(N)=O        ng/mL              180

* * *

- TEST_DESCRIPTION: Biodistribution of SLS MDI formulation: drug concentrations in lung and blood (Table 5)
- Format: in vivo, male Sprague-Dawley rats
- EXPERIMENTAL_CONDITIONS: rat, lung, inhaled or intranasal; rats; SLS MDI 10 mg/mL drug, 0.3% SLS in HFA134a; 1.0 hr; read-out: Concentrations of Drug, Lung
READOUT_KIND: concentration at 1 h

> print(dat)
                            molecule.smiles  reported.result
1  C[C@H](C#Cc1ccc(Oc2ccc(F)cc2)o1)N(O)C(N)=O       13100 ng/g
